Tested System: d-enCas12a (Acidaminococcus sp., UniProt U2UMQ6 1-1307, E174R;S542R;K548R;D908A;E993A;D1235A)
Protocol Details: Spec-seq (native PAGE EMSA with sequencing of bound and unbound); 25 mM Tris-HCl pH 7.4, 150 mM KCl, 5 mM MgCl2, 10% glycerol, 1 mM DTT, 40 ng/uL salmon sperm DNA; 400 nM Cas12a, 480 nM crRNA, 50 nM library, 37 C 1 h; native PAGE at room temperature; high values mean tight binding;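 also: relative affinity from the bound to unbound sequence frequency ratio in Spec-seq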
Setup Conditions: protein: recombinant
binding signal by entry:
Measured Attribute: binding signal (lnKA)

INSERT INTO assay_data (binder, assay_value) VALUES
  ('TAGA (dsDNA) DNA 1: GCTATCTAGTGCTCAGTACGCACTGTAGAAGGAAACTTCTGGCAGGACCAGGTCATGAGATCGGAAGAGCACACGTCTGAACTCCAGTCA DNA 2: TGACTGGAGTTCAGACGTGTGCTCTTCCGATCTCATGACCTGGTCCTGCCAGAAGTTTCCTTCTACAGTGCGTACTGAGCACTAGATAGC RNA: AAUUUCUACUCUUGUAGAUAGGAAACUUCUGGCAGGACC', -5.31),
  ('AGCT (dsDNA) DNA 1: GCTATCTAGTGCTCAGTACGCACTGAGCTAGGAAACTTCTGGCAGGACCAGGTCATGAGATCGGAAGAGCACACGTCTGAACTCCAGTCA DNA 2: TGACTGGAGTTCAGACGTGTGCTCTTCCGATCTCATGACCTGGTCCTGCCAGAAGTTTCCTAGCTCAGTGCGTACTGAGCACTAGATAGC RNA: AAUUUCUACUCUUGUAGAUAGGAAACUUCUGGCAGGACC', -4.97),
  ('TTCC (dsDNA) DNA 1: GCTATCTAGTGCTCAGTACGCACTGTTCCAGGAAACTTCTGGCAGGACCAGGTCATGAGATCGGAAGAGCACACGTCTGAACTCCAGTCA DNA 2: TGACTGGAGTTCAGACGTGTGCTCTTCCGATCTCATGACCTGGTCCTGCCAGAAGTTTCCTGGAACAGTGCGTACTGAGCACTAGATAGC RNA: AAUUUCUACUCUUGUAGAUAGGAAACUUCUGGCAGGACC', -0.274);
